Tested on: 156681-154-R-J1-PDC complex spheroid viability
Assay: Anticancer human tumor 156681-154-R-J1-PDC patient-derived melanoma cell line growth inhibition [CLK]
Conditions: second compound 3.16 µM; first compound 1 µM; hits give low values
Records here are stratified by viability, T/C; strata: bottom bin = under 0.3%, middle bin = from 0.3% up to 20%, top bin = 20% and over

Examples from the recorded data:
Molecule	Cat
C#Cc1c(F)ccc2cc(O)cc(-c3ncc4c(N5CC6CCC(C5)N6)nc(OCC56CCCN5CC(F)C6)nc4c3F)c12 (stereo not given) + CN1CCN(c2cc(C(=O)Nc3cc4cc(-c5cnn(C)c5)ccc4cn3)ccn2)CC1	middle bin
CC1(C)CCC(CN2CCN(c3ccc(C(=O)NS(=O)(=O)c4ccc(NCC5CCOCC5)c([N+](=O)[O-])c4)c(Oc4cnc5[nH]ccc5c4)c3)CC2)=C(c2ccc(Cl)cc2)C1 + CNC(=O)c1ccc(Nc2nc(OC3CCCC3)c3c(-c4ccc5nc(C)oc5c4)c[nH]c3n2)c(OC)c1	top bin
O=c1[nH]cc(F)c(=O)[nH]1 + CN1CCN(c2cc(C(=O)Nc3cc4cc(-c5cnn(C)c5)ccc4cn3)ccn2)CC1	bottom bin
COc1cccc2c1C(=O)c1c(O)c3c(c(O)c1C2=O)CC(O)(C(=O)CO)CC3OC1CC(N)C(O)C(C)O1 (stereo not given) + CN1CCN(c2cc(C(=O)Nc3cc4cc(-c5cnn(C)c5)ccc4cn3)ccn2)CC1	middle bin
COC1C=CCC(C)C(C)S(=O)(=O)NC(=O)c2ccc3c(c2)N(CC2CCC21)CC1(CCCc2cc(Cl)ccc21)CO3 (stereo not given) + CNC(=O)c1ccc(Nc2nc(OC3CCCC3)c3c(-c4ccc5nc(C)oc5c4)c[nH]c3n2)c(OC)c1	middle bin

INPUT: Band assignment needed for Nc1ccn(C2OC(CO)C(O)C2(F)F)c(=O)n1 (stereo not given) + CN1CCN(c2cc(C(=O)Nc3cc4cc(-c5cnn(C)c5)ccc4cn3)ccn2)CC1 please.
OUTPUT: bottom bin

INPUT: Band assignment needed for CC1(C)CCC(CN2CCN(c3ccc(C(=O)NS(=O)(=O)c4ccc(NCC5CCOCC5)c([N+](=O)[O-])c4)c(Oc4cnc5[nH]ccc5c4)c3)CC2)=C(c2ccc(Cl)cc2)C1 + CN1CCN(c2cc(C(=O)Nc3cc4cc(-c5cnn(C)c5)ccc4cn3)ccn2)CC1 please.
OUTPUT: bottom bin

INPUT: Band assignment needed for CC1COCCN1c1cc(C2(S(C)(=N)=O)CC2)nc(-c2ccnc3[nH]ccc23)n1 (stereo not given) + CNC(=O)c1ccc(Nc2nc(OC3CCCC3)c3c(-c4ccc5nc(C)oc5c4)c[nH]c3n2)c(OC)c1 please.
OUTPUT: top bin

INPUT: Band assignment needed for Nc1ccn(C2OC(CO)C(O)C2(F)F)c(=O)n1 (stereo not given) + CNC(=O)c1ccc(Nc2nc(OC3CCCC3)c3c(-c4ccc5nc(C)oc5c4)c[nH]c3n2)c(OC)c1 please.
OUTPUT: middle bin

###

Test system: 156681-154-R-J1-PDC complex spheroid viability
Assay: Anticancer human tumor 156681-154-R-J1-PDC cell line growth inhibition [CLK]; active = viability on the fitted dose curve at most 10% of control; inactive = the rest;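 also: spheroids exposed to the agents for seven days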
Details: second compound 0.0316 µM; first compound 0.316 µM
Response enum: active, inactive

Examples from the recorded data:
Molecule	System Tested	Cat
COC1C=CCC(C)C(C)S(=O)(=O)NC(=O)c2ccc3c(c2)N(CC2CCC21)CC1(CCCc2cc(Cl)ccc21)CO3 (stereo unspecified) + CN1CCN(c2cc(C(=O)Nc3cc4cc(-c5cnn(C)c5)ccc4cn3)ccn2)CC1	156681-154-R-J1-PDC complex spheroid viability	inactive
COc1cccc2c1C(=O)c1c(O)c3c(c(O)c1C2=O)CC(O)(C(=O)CO)CC3OC1CC(N)C(O)C(C)O1 (stereo unspecified) + CNC(=O)c1ccc(Nc2nc(OC3CCCC3)c3c(-c4ccc5nc(C)oc5c4)c[nH]c3n2)c(OC)c1	156681-154-R-J1-PDC complex spheroid viability	active
COC1C=CCC(C)C(C)S(=O)(=O)NC(=O)c2ccc3c(c2)N(CC2CCC21)CC1(CCCc2cc(Cl)ccc21)CO3 (stereo unspecified) + CNC(=O)c1ccc(Nc2nc(OC3CCCC3)c3c(-c4ccc5nc(C)oc5c4)c[nH]c3n2)c(OC)c1	156681-154-R-J1-PDC complex spheroid viability	inactive
CC1COCCN1c1cc(C2(S(C)(=N)=O)CC2)nc(-c2ccnc3[nH]ccc23)n1 (stereo unspecified) + CN1CCN(c2cc(C(=O)Nc3cc4cc(-c5cnn(C)c5)ccc4cn3)ccn2)CC1	156681-154-R-J1-PDC complex spheroid viability	inactive
C=C(F)C(=O)N1CCN(c2nc(OCC3CCCN3C)nc3c2CCN(c2cccc4cccc(Cl)c24)C3)CC1CC#N (stereo unspecified) + CN1CCN(c2cc(C(=O)Nc3cc4cc(-c5cnn(C)c5)ccc4cn3)ccn2)CC1	156681-154-R-J1-PDC complex spheroid viability	inactive
COc1ccc([C@@H](O)c2cc(-c3ncnc4cc(N5CCOCC5)ccc34)c(F)cc2Cl)nn1 + CNC(=O)c1ccc(Nc2nc(OC3CCCC3)c3c(-c4ccc5nc(C)oc5c4)c[nH]c3n2)c(OC)c1	156681-154-R-J1-PDC complex spheroid viability	inactive

INPUT: Please state the recorded outcome for this molecule: O=C(c1cc(Cc2n[nH]c(=O)c3ccccc23)ccc1F)N1CCN(C(=O)C2CC2)CC1 + CNC(=O)c1ccc(Nc2nc(OC3CCCC3)c3c(-c4ccc5nc(C)oc5c4)c[nH]c3n2)c(OC)c1
OUTPUT: inactive

INPUT: Please state the recorded outcome for this molecule: O=c1[nH]cc(F)c(=O)[nH]1 + CNC(=O)c1ccc(Nc2nc(OC3CCCC3)c3c(-c4ccc5nc(C)oc5c4)c[nH]c3n2)c(OC)c1
OUTPUT: inactive

INPUT: Please state the recorded outcome for this molecule: COc1c(OCCCN2CCOCC2)ccc2c3n(c(=NC(=O)c4cnc(N)nc4)nc12)CCN3 + CN1CCN(c2cc(C(=O)Nc3cc4cc(-c5cnn(C)c5)ccc4cn3)ccn2)CC1
OUTPUT: active

INPUT: Please state the recorded outcome for this molecule: CC(CO)NC(=O)c1cc(-c2ccc(Cl)cc2)nn(-c2cnn(C)c2)c1=O (stereo unspecified) + CN1CCN(c2cc(C(=O)Nc3cc4cc(-c5cnn(C)c5)ccc4cn3)ccn2)CC1
OUTPUT: inactive

INPUT: Please state the recorded outcome for this molecule: CCCS(=O)(=O)Nc1ccc(F)c(C(=O)c2c[nH]c3ncc(-c4ccc(Cl)cc4)cc23)c1F + CN1CCN(c2cc(C(=O)Nc3cc4cc(-c5cnn(C)c5)ccc4cn3)ccn2)CC1
OUTPUT: inactive

###

Tested on: 156681-154-R-J1-PDC complex spheroid viability
Test: Anticancer human tumor 156681-154-R-J1-PDC cell line growth inhibition [CLK]; active means viability on the fitted dose curve at most 10% of control; inactive means the rest;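 also: spheroids exposed to the agents for seven days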
Conditions: second compound 0.0316 µM; first compound 0.03 µM
Description: A high-throughput screen of multi-cell type tumor spheroids was designed to identify active combinations of […] and targeted small molecules. Complex spheroids include a stromal component modeled by human endothelial cells (HUVEC) and fibroblasts modeled by human mesenchymal stem cells (MSCs). […] Compounds. […] If the clinical Cmax for an agent had not been determined, the highest concentration tested was 10 microM. […]
Response enum: Y (active), N (inactive)

INPUT: Please state the recorded outcome for this molecule: NC(=O)C(=Cn1cnc(-c2cc(C(F)(F)F)cc(C(F)(F)F)c2)n1)c1cncnc1 + CN1CCN(c2cc(C(=O)Nc3cc4cc(-c5cnn(C)c5)ccc4cn3)ccn2)CC1
OUTPUT: N

INPUT: Please state the recorded outcome for this molecule: NC(=O)C(=Cn1cnc(-c2cc(C(F)(F)F)cc(C(F)(F)F)c2)n1)c1cncnc1 + CNC(=O)c1ccc(Nc2nc(OC3CCCC3)c3c(-c4ccc5nc(C)oc5c4)c[nH]c3n2)c(OC)c1
OUTPUT: N

INPUT: Please state the recorded outcome for this molecule: CC(C)CC(NC(=O)C(Cc1ccccc1)NC(=O)c1cnccn1)B(O)O (stereo unspecified) + CN1CCN(c2cc(C(=O)Nc3cc4cc(-c5cnn(C)c5)ccc4cn3)ccn2)CC1
OUTPUT: Y

INPUT: Please state the recorded outcome for this molecule: C=CC(=O)Nc1cc(Nc2nccc(-c3cn(C)c4ccccc34)n2)c(OC)cc1N(C)CCN(C)C + CN1CCN(c2cc(C(=O)Nc3cc4cc(-c5cnn(C)c5)ccc4cn3)ccn2)CC1
OUTPUT: N

INPUT: Please state the recorded outcome for this molecule: CC(C)CC(NC(=O)C(Cc1ccccc1)NC(=O)c1cnccn1)B(O)O (stereo unspecified) + CNC(=O)c1ccc(Nc2nc(OC3CCCC3)c3c(-c4ccc5nc(C)oc5c4)c[nH]c3n2)c(OC)c1
OUTPUT: Y

INPUT: Please state the recorded outcome for this molecule: C=CC(=O)Nc1cc(Nc2nccc(-c3cn(C)c4ccccc34)n2)c(OC)cc1N(C)CCN(C)C + CNC(=O)c1ccc(Nc2nc(OC3CCCC3)c3c(-c4ccc5nc(C)oc5c4)c[nH]c3n2)c(OC)c1
OUTPUT: N

Entry source: PubChem BioAssay AID2060627
